Species on record: Rattus norvegicus
measurement notes: In vitro metabolism of radiolabeled compound at 10 uM was performed in rat microsomal protein containing a NADPH-regenerating system for 1 hr at 37 degree C
Type: functional
measure name: Covalent binding (%)
Reply numerically in %, unit not repeated.

Cc1cncc(C)c1CC(c1ccc(C(O)(C(F)(F)F)C(F)(F)F)cc1)c1ccc(OCF)c(OC2CCC2)c1 (centres undefined) ... 0.45

Inquiry: // lookup Covalent binding for COc1ccc(C(Cc2c(C)cncc2C)c2ccc(C(O)(C(F)(F)F)C(F)(F)F)cc2)cc1OC1CCCC1 (centres undefined)
Reply text: 2.9
